- Test system: Bcap37
- protocol-description: Growth inhibition of human Bcap37 cells after 72 hrs by MTT assay
- Type: functional, cell-based
- experimental-conditions: Bcap37, 72 h
pIC50: −log10 of the molar value. Where a name gives a salt, the structure may show the parent alone.
Please mark 1 (yes) if the recorded pIC50 is equal to or greater than 5, and 0 (no) if it falls below.

Known results for compounds:
[
  {
    "compound": "O=C(/C=C/c1ccc(Oc2ncnc3ccc(Cl)cc23)cc1)/C=C/c1cccc(Cl)c1Cl",
    "target-under-test": "Bcap37",
    "assigned-class": "0 (no)"
  },
  {
    "compound": "O=C(/C=C/c1ccc(Cl)c(Cl)c1)/C=C/c1ccccc1Oc1ncnc2ccc(Cl)cc12",
    "target-under-test": "Bcap37",
    "assigned-class": "0 (no)"
  },
  {
    "compound": "COc1cccc2c1C(=O)c1c(O)c3c(c(O)c1C2=O)C[C@@](O)(C(=O)CO)C[C@@H]3O[C@H]1C[C@H](N)[C@H](O)[C@H](C)O1 [DOXORUBICIN HYDROCHLORIDE]",
    "target-under-test": "Bcap37",
    "assigned-class": "1 (yes)"
  },
  {
    "compound": "O=C(/C=C/c1ccc(Oc2ncnc3ccc(Cl)cc23)cc1)/C=C/c1ccc(Cl)c(Cl)c1",
    "target-under-test": "Bcap37",
    "assigned-class": "0 (no)"
  }
]

// switching to the query compound
*Q* State whether the measured pIC50 reaches 5, counting equality as reaching it, for O=C(/C=C/c1ccc(Oc2ncnc3ccc(Cl)cc23)cc1)/C=C/c1ccc(Cl)c([N+](=O)[O-])c1
*A* 0 (no)
